# System: TRPA1V1
# run-description: Intracellular calcium (Fluo-4, FLIPR) activation of TRPA1V1 cells (co-expressing TRPA1 and TRPV1) by GRAS compounds;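 further: HEK293 cells co-expressing TRPA1 and TRPV1, fluorescence read at 488/514 nm after baseline subtraction, recorded every 2 s over 10 min, ionomycin 10 µM and buffer as controls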
# Format: cell-based, human
# assay-conditions: Table 1(c); 1 mM; relative to AITC 30 μM
# binarize A1V1 activation, % of agonist value: threshold 80% inclusive, high side 1, low side 0

>>> classification("C=CCOC(=O)Cc1ccccc1 [Allyl phenylacetate]")
1
>>> classification("CC(C)=CCC[C@](C)(O)[C@@H]1CC=C(C)CC1 [(−)-Alpha-Bisabolol]")
1
>>> classification("C=C(C)CCC[C@H](C)CCOC(=O)CC [Rhodinyl propionate]")
1
>>> classification("CCCCCC1C(=O)CCC1CC(=O)OC (centres unmarked) [Hedione, Methyl dihydrojasmonate]")
0
>>> classification("CC=Cc1ccc(OC(=O)Cc2ccccc2)c(OC)c1 [Isoeugenyl phenylacetate]")
0
>>> classification("COc1ccccc1C=CC=O [O-Methoxycinnamaldehyde]")
0
>>> classification("CCCCCC(=O)c1ccco1 [2-Hexanoylfuran]")
1
